system: Plasmodium falciparum; assay: Antimalarial activity as reduced parasitaemia after 72 hrs against chloroquine-resistant Plasmodium falciparum FCB in human erythrocytes by DAPI stain; type: functional, organism-based
Quantity kind: pEC50
Please report pEC50 as the negative decimal logarithm of the molar concentration, giving only the number.

Field: example entries. Status: answers known.
[
  {
    "Compound": "C[C@@H]1CC[C@H]2[C@@H](C)C(=O)O[C@@H]3O[C@@]4(C)CC[C@@H]1[C@]32OO4",
    "pEC50": 8.10
  },
  {
    "Compound": "CCN(CC)CCCC(C)Nc1ccnc2cc(Cl)ccc12 (stereo not given)",
    "pEC50": 7.28
  }
]

Task item: Sample CC1(CC(=O)NCCNc2ccnc3cc(Cl)ccc23)CC2(CCCCC2)OO1 (stereo not given) — what was its pEC50?
Reply: 7.80

Task item: Value lookup for pEC50; key = `O=C(CN1CCC2(CCCCC2)C1)NCCNc1ccnc2cc(Cl)ccc12`
Reply: 7.10

Task item: What value of measured pEC50 is listed for CCNC(=O)CC1(C)CC2(CCCCC2)OO1 (stereo not given) ?
Reply: 6.45

###

Listing: log10(EC50) of selected compounds
tested on: Plasmodium falciparum; assay: Antimalarial activity as reduced parasitaemia after 72 hrs against chloroquine-resistant Plasmodium falciparum 106/1 in human erythrocytes by DAPI stain; assay type: functional, organism-based; conditions: 106/1, 72 h
Hey, these are logged values: log10 of EC50, nM being the unit before logging.

Before answering, review these 4 worked examples.
[
  {
    "Compound": "CCN(CC)CCCC(C)Nc1ccnc2cc(Cl)ccc12 (stereo not given)",
    "Target system": "Plasmodium falciparum",
    "log10(EC50)": 1.15
  },
  {
    "Compound": "CCNC(=O)CC1(C)CC2(CCCCC2)OO1 (stereo not given)",
    "Target system": "Plasmodium falciparum",
    "log10(EC50)": 2.15
  },
  {
    "Compound": "CC1(CC(=O)NCCNc2ccnc3cc(Cl)ccc23)CC2(CCCCC2)OO1 (stereo not given)",
    "Target system": "Plasmodium falciparum",
    "log10(EC50)": 1.34
  },
  {
    "Compound": "O=C(CN1CCC2(CCCCC2)C1)NCCNc1ccnc2cc(Cl)ccc12",
    "Target system": "Plasmodium falciparum",
    "log10(EC50)": 1.72
  }
]

From here, focus on the item given below.
Task item: Which log10(EC50) reading was recorded for the compound `C[C@@H]1CC[C@H]2[C@@H](C)C(=O)O[C@@H]3O[C@@]4(C)CC[C@@H]1[C@]32OO4` ?
Reply: 1.11
